B1: C10orf62 (parent)
chain: MLWVQRKRRRKETSECPSDKDKSP

Variants of: B1
Experiment: protein stability index of a GFP-peptide fusion (GPS, HEK-293T) (PSI 1-6); higher = more stable;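 further: lentivirally expressed fusions sorted by FACS into six bins by GFP to DsRed ratio, PSI derived from sequencing read proportions per bin multiplied by bin number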
Details: c terminus: a fixed tail appended
endpoint: protein stability index
Just the number.

These recorded examples may help you get a feel for the data.
entry sequence: MLWVQRKRRRKETSECPSHKDKSP
protein stability index: 2.77
--
entry sequence: MLWVQRKRRRKETSECESDKDKSP
protein stability index: 2.41
--
entry sequence: MLWVQRKRRRKETSENPSDKDKSP
protein stability index: 3.16
--
entry sequence: MLWVQRKRRRKETSECASDKDKSP
protein stability index: 4.1

Recorded protein stability index of `MLWVQRHRRRKETSECPSDKDKSP` , please.
3.69

Ok, now `MLWVQRLRRRKETSECPSDKDKSP`
1.73

Ok, now `RLWVQRKRRRKETSECPSDKDKSP`
2.59

Ok, now `MYWVQRKRRRKETSECPSDKDKSP`
2.41

Ok, now `MKWVQRKRRRKETSECPSDKDKSP`
2.98

Ok, now `MLWVQRKRRRKETRECPSDKDKSP`
2.55
